The origin of these recorded values is the supplement of paper PMC8671470.

Collected cell viability values appear next to each entry.
# Tested on: HL-60
# METHOD_SUMMARY: cell viability (% survival relative to DMSO control, bortezomib = 0%); higher = less cytotoxic
# DETAILS: 1 nM; 72 h
Just the number in %, nothing appended.

# annotated cases, reported cell viability shown
COMPOUND	cell viability, %
OC[C@H]1OC(O)C[C@@H](O)[C@@H]1O (stereo partly specified) [2-deoxyglucose]	82.5
C[C@H]1O[C@H](O[C@H]2[C@H](O)[C@@H](O)[C@@H](O[C@H]3[C@H](O)[C@@H](O)C(O)O[C@@H]3CO)O[C@@H]2CO)[C@H](O)[C@@H](O)[C@@H]1N[C@H]1C=C(CO)[C@@H](O)[C@H](O)[C@H]1O (mixture of isomers) [Acarbose]	125
COc1ccc2c(c1)c(CC(=O)O)c(C)n2C(=O)c1ccc(Cl)cc1 [Indomethacine]	124
CN(C)C(=N)NC(=N)N [Metformin]	98.2

Param readout = cell viability; param system = HL-60; param query = Cl.OC[C@H]1NC[C@H](O)[C@@H](O)[C@H]1O [Migalastat] ; response: value
92.9

GET /values?readout=cell viability&system=HL-60&item= O=C1N[C@@H]2[C@@H](O)[C@@H](O)[C@H](O)[C@@H](CO)N2C1=O [Kifunensine]
102

Field: cell viability (HL-60). Entry: O=C(Oc1ccc([N+](=O)[O-])cc1)N1CCC(C(O)(c2ccc3c(c2)OCO3)c2ccc3c(c2)OCO3)CC1 [JZL184]
96.9

Requested read-out cell viability, target or system HL-60, entry CCCCC/C=C\C/C=C\C/C=C\C/C=C\CCCC(=O)C(F)(F)F [Arachidonyl trifluoromethyl ketone]
98.9

Item Nc1ccn([C@@H]2O[C@H](CO)[C@@H](O)C2(F)F)c(=O)n1 [Gemcitabine] with HL-60 - cell viability?
104

Tell me reported cell viability for O=NN(CCCl)C(=O)NCCCl [Carmustine] , tested with HL-60.
98.8

Hello, I am looking for reported cell viability with HL-60 for O=C(Oc1cccc(F)c1OC(=O)c1cccc(O)c1)c1cccc(O)c1 [WZB117] . Could you help?
102
